Biological target: GST-Syk Full Protein (human) (Homo sapiens)
Test: Syk kinase inhibition test (HTRF method)
Assay type: biochemical
Details: HTRF, 100 μM ATP, 30 min room temperature, average; read-out: sykHTRF ave IC50
pIC50: −log10 of the molar value.
propertyMeasured: pIC50

compound	result
CC(=O)N[C@H](c1ccc(O)cc1)c1ncc(-c2cccc(Nc3cc(C)ccn3)n2)s1	> 7.00

Enter recorded pIC50 with GST-Syk Full Protein (human) (Homo sapiens) for Cc1ccnc(Nc2cccc(-c3cnc([C@@H]4CCC(=O)O4)s3)n2)c1 here.
> 7.00

Enter recorded pIC50 with GST-Syk Full Protein (human) (Homo sapiens) for COC(=O)N[C@@H](C)c1ncc(-c2cccc(Nc3cc(C)ccn3)n2)s1 here.
6.00 to 7.00

Enter recorded pIC50 with GST-Syk Full Protein (human) (Homo sapiens) for Cc1ccnc(Nc2cccc(-c3cnc(CNCc4ccc(C(=O)O)cc4)s3)n2)c1 here.
6.00 to 7.00

Enter recorded pIC50 with GST-Syk Full Protein (human) (Homo sapiens) for CC(=O)NCC(=O)N[C@@H](C)c1ncc(-c2cccc(Nc3cc(C)ccn3)n2)s1 here.
6.00 to 7.00

Enter recorded pIC50 with GST-Syk Full Protein (human) (Homo sapiens) for Cc1ccnc(Nc2cccc(-c3cnc([C@@H](O)CO)s3)n2)c1 here.
6.00 to 7.00

Enter recorded pIC50 with GST-Syk Full Protein (human) (Homo sapiens) for Cc1ccnc(Nc2cccc(-c3cnc(CNC(=O)NCCO)s3)n2)c1 here.
6.00 to 7.00

Enter recorded pIC50 with GST-Syk Full Protein (human) (Homo sapiens) for Cc1ccnc(Nc2cccc(-c3cnc(N4CCC(C(=O)NCCO)CC4)s3)n2)c1 here.
> 7.00

Enter recorded pIC50 with GST-Syk Full Protein (human) (Homo sapiens) for Cc1ccnc(Nc2cccc(-c3cnc([C@@H](N)Cc4ccccc4)s3)n2)c1 here.
6.00 to 7.00

---

Test system: cultured human mast cells
Experiment: Degranulation inhibition test using cultured human mast cells (IgE cross-linking, β-Hexosaminidase release)
Type: cell-based
Conditions: Mast cell; cultured human mast cells, anti-hIgE stimulation, β-Hexosaminidase index, average; read-out: human degranulation ave. IC50
// values below are reported IC50

Reference set, count: 4
compound	result
Cc1ccnc(Nc2cccc(-c3cnc([C@@H](N)Cc4ccc(NC(=O)OCc5ccccc5)cc4)s3)n2)c1 [Compound A-177]	> 1000 nM
CNC(=O)[C@H]1CC[C@H](c2ncc(-c3cccc(Nc4cc(C)ccn4)n3)s2)CC1 [Compound A-336]	100 to 1000 nM
Cc1ccnc(Nc2cccc(-c3cnc(CCC4CCN(C(=O)CO)CC4)s3)n2)c1 [Compound A-263]	100 to 1000 nM
CCOC(=O)c1nc([C@H](C)NC(C)=O)sc1-c1cccc(Nc2cc(C)ccn2)n1 [Compound A-102]	> 1000 nM

Using known records, supply IC50 for CC(=O)N[C@@H](Cc1ccc(OCCO)cc1)c1ncc(-c2cccc(Nc3cc(C)ccn3)n2)s1 [Compound A-140]
> 1000 nM

Using known records, supply IC50 for Cc1ccnc(Nc2cccc(-c3cnc(CCCCO)s3)n2)c1 [Compound A-132]
100 to 1000 nM

Using known records, supply IC50 for Cc1ccnc(Nc2cccc(-c3cnc(C4CCN(C(=O)N(C)C)CC4)s3)n2)c1 [Compound A-371]
100 to 1000 nM

Using known records, supply IC50 for Cc1ccnc(Nc2cccc(-c3cnc([C@H]4CC[C@H](C#N)CC4)s3)n2)c1 [Compound A-316]
100 to 1000 nM

Using known records, supply IC50 for COC1CCN(C(=O)[C@H]2CC[C@H](c3ncc(-c4cccc(Nc5cc(C)ccn5)n4)s3)CC2)CC1 [Compound A-280]
100 to 1000 nM

Using known records, supply IC50 for Cc1ccnc(Nc2cccc(-c3cnc(Cc4ccc(C(=O)O)cc4)s3)n2)c1 [Compound A-224]
> 1000 nM

Using known records, supply IC50 for Cc1ccnc(Nc2cccc(-c3cnc(CN(C)C(=O)N(C)C)s3)n2)c1 [Compound A-357]
> 1000 nM

Using known records, supply IC50 for Cc1ccnc(Nc2cccc(-c3cnc([C@H](C)NC(=O)c4ccc(O)cc4)s3)n2)c1 [Compound A-347]
100 to 1000 nM

Using known records, supply IC50 for Cc1ccnc(Nc2cccc(-c3cnc([C@H](C)OC(=O)N(C)C)s3)n2)c1 [Compound A-345]
100 to 1000 nM

---

System: cultured human mast cells
Test: Degranulation inhibition test using cultured human mast cells (IgE cross-linking, β-Hexosaminidase release)
Type: cell-based
Settings: Mast cell; cultured human mast cells, anti-hIgE stimulation, β-Hexosaminidase index, average; read-out: human degranulation ave. IC50
propertyMeasured: IC50

Reference set, count: 8
molecule	IC50
Cc1ccnc(Nc2cccc(-c3cnc([C@@H](N)CCC(=O)OCc4ccccc4)s3)n2)c1	0.1 to 1 µM
Cc1ccnc(Nc2cccc(-c3cnc([C@@H](N)C(C)C)s3)n2)c1	> 1 µM
CCOC(=O)CNC(=O)NCc1ncc(-c2cccc(Nc3cc(C)ccn3)n2)s1	0.1 to 1 µM
Cc1ccnc(Nc2cccc(-c3cnc(COCC(=O)N(C)C)s3)n2)c1	0.1 to 1 µM
Cc1ccnc(Nc2cccc(-c3cnc(CCc4ccc(N)cc4)s3)n2)c1	0.1 to 1 µM
Cc1ccnc(Nc2cccc(-c3cnc(CCc4ccc(NC(=O)CO)cc4)s3)n2)c1	0.1 to 1 µM
Cc1ccnc(Nc2cccc(-c3cnc([C@H]4CC[C@H](CNS(C)(=O)=O)CC4)s3)n2)c1	0.1 to 1 µM
O=C(O)[C@H]1CC[C@H](c2ncc(-c3cccc(Nc4cc(Cl)ccn4)n3)s2)CC1	0.1 to 1 µM

Using known records, supply IC50 for O=C(O)[C@H]1CC[C@H](c2ncc(-c3cccc(Nc4cc5ccccc5cn4)n3)s2)CC1
0.1 to 1 µM

Using known records, supply IC50 for Cc1ccnc(Nc2cccc(-c3cnc([C@H]4CC[C@H](C(=O)N5CCC[C@@H]5CO)CC4)s3)n2)c1
0.1 to 1 µM

Using known records, supply IC50 for Cc1ccnc(Nc2cccc(-c3cnc(CN4CCNCC4)s3)n2)c1
0.1 to 1 µM

Using known records, supply IC50 for Cc1ccnc(Nc2cccc(-c3cnc([C@@H]4CCCN4)s3)n2)c1
> 1 µM

Using known records, supply IC50 for CC(=O)N(C)c1ncc(-c2cccc(Nc3cc(C)ccn3)n2)s1
0.1 to 1 µM

Using known records, supply IC50 for Cc1ccnc(Nc2cccc(-c3cnc(COCC(=O)N4CCNC(=O)C4)s3)n2)c1
0.1 to 1 µM

Using known records, supply IC50 for Cc1ccnc(Nc2cccc(-c3cnc(CCC4CCC(O)CC4)s3)n2)c1 (centres unmarked)
0.1 to 1 µM

Using known records, supply IC50 for COc1ccnc(Nc2cccc(-c3cnc([C@@H]4CCC(=O)N4)s3)n2)c1
0.1 to 1 µM

Using known records, supply IC50 for CC(=O)N[C@H](c1ncc(-c2cccc(Nc3cc(C)ccn3)n2)s1)C(C)C
0.1 to 1 µM

Using known records, supply IC50 for Cc1ccnc(Nc2cccc(-c3cnc(CC4CCC(C(=O)N5CCC(O)CC5)CC4)s3)n2)c1 (centres unmarked)
0.1 to 1 µM

---

// values below are reported pIC50
Biological target: GST-Syk Full Protein (human) (Homo sapiens, UniProt P43405)
Test: Syk kinase inhibition test (HTRF method)
Assay type: biochemical
Details: Tables 1-x, compounds A; read-out: sykHTRF ave IC50
pIC50: −log10 of the molar value. Where a name gives a salt, the structure may show the parent alone.

Using known records, supply pIC50 for Cc1ccnc(Nc2cccc(-c3cnc(N4CCC(C(C)(C)C(=O)O)CC4)s3)n2)c1 [Compound A-718, dihydrochloride]
> 7.00

Using known records, supply pIC50 for Cc1ccnc(Nc2cccc(-c3cnc(CNC(=O)c4cc(C)on4)s3)n2)c1 [Compound A-395]
6.00 to 7.00

Using known records, supply pIC50 for CN(c1ncc(-c2cccc(Nc3cc(Cl)ccn3)n2)s1)C1CCN(C(=O)CO)CC1 [Compound A-537]
> 7.00

Using known records, supply pIC50 for CNC(=O)C(C(C)C)N(C)c1ncc(-c2cccc(Nc3cc(C)ccn3)n2)s1 (stereo not shown) [Compound A-674]
6.00 to 7.00

---

Tested on: cultured human mast cells
Test: Degranulation inhibition test using cultured human mast cells (IgE cross-linking, β-Hexosaminidase release)
Type: cell-based
Details: Mast cell; Tables 1-x, compounds A; cultured human mast cells; read-out: human degranulation ave. IC50
Description: Degranulation Inhibition Test Using Cultured Human Mast Cells (1) Separation of Hematopoietic Stem Cells; […] 10 μL of a compound 10-fold diluted with IMDM after dissolved in DMSO (DMSO final concentration 0.1%) was added and reacted at 37° C. for 10 minutes. […] After centrifugation, 50 μL/well of the supernatant was collected and stored at −40° C. untill the quantity of degranulation was measured. […]
Where a name gives a salt, the structure may show the parent alone.
propertyMeasured: IC50

Reference set, count: 3
compound	result
Cc1ccnc(Nc2cccc(-c3cnc(N(CC(=O)N(C)C)[C@H]4CC[C@H](C(=O)O)CC4)s3)n2)c1	> 1000 nM
Cc1ccnc(Nc2cccc(-c3cnc(N4CCN(CC(=O)O)C(=O)C4)s3)n2)c1 [Compound A-464, dihydrochloride]	> 1000 nM
Cc1ccnc(Nc2cccc(-c3cnc(CN4C(=O)CN(Cc5ccccc5)CC4=O)s3)n2)c1	> 1000 nM

Using known records, supply IC50 for CC(=O)NCC(=O)N1CCC(N(C)c2ncc(-c3cccc(Nc4cc(C)ccn4)n3)s2)CC1
100 to 1000 nM

Using known records, supply IC50 for CC(=O)N(C)[C@@H](Cc1ccc(O)cc1)c1ncc(-c2cccc(Nc3cc(C)ccn3)n2)s1
100 to 1000 nM

Using known records, supply IC50 for COC(=O)N1CCN(c2ncc(-c3cccc(Nc4cc(C)ccn4)n3)s2)CC1
100 to 1000 nM

Using known records, supply IC50 for Cc1ccnc(Nc2cccc(-c3sc(N4CCN(C=O)CC4)nc3C)n2)c1
100 to 1000 nM
